FYI, the data here is from the supplement of paper PMC7125110.

Below, each of the variants is paired with its reported self-cleavage kobs at 10000 uM GlcN6P value.
B1: glmS ribozyme (parent)
chain: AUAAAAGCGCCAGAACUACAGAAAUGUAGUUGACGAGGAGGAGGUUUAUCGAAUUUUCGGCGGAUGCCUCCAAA

Variants of: B1
assay.comment: self-cleavage kobs at 10000 uM GlcN6P; higher = faster cleavage; RNA array
test.context: with glucosamine-6-phosphate
Variants at the floor of the assay were thinned out.
Report the figure in s⁻¹ without appending any unit label.

{"variant.code": "C16U U69A", "endpoint.unit": "s⁻¹", "self-cleavage kobs at 10000 uM GlcN6P": 0.000115}
{"variant.code": "G40U C70G", "endpoint.unit": "s⁻¹", "self-cleavage kobs at 10000 uM GlcN6P": 0.000404}
{"variant.code": "A15U C71U", "endpoint.unit": "s⁻¹", "self-cleavage kobs at 10000 uM GlcN6P": 0.00793}
{"variant.code": "G7A", "endpoint.unit": "s⁻¹", "self-cleavage kobs at 10000 uM GlcN6P": "3.13e-05"}
{"variant.code": "C50G C61U C71U", "endpoint.unit": "s⁻¹", "self-cleavage kobs at 10000 uM GlcN6P": 0.000211}

Exercise: Entry under review: U31A C58U . Reported self-cleavage kobs at 10000 uM GlcN6P?
Key: 4.45e-05

Exercise: What do you have for A14G A33C ?
Key: 0.000108

Exercise: Now this one: U30A A53C
Key: 0.00196

Exercise: Next record, please: U47G G59A
Key: 3.68e-05

Exercise: One more variant: A15C G44A A53G
Key: 5.76e-05

Exercise: What do you get for U46G C70A ?
Key: 0.000188

Exercise: Also G41C A53U ?
Key: 0.000201

Exercise: Now the variant A48G U56G
Key: 7.35e-05

Exercise: Proceed to G7U C8G U47G C58U C61G U69G
Key: 0.000464

Exercise: Would you mind doing G7U A52G C68G as well?
Key: 0.000484

Exercise: Also check C58A U65C
Key: 4.42e-05

Exercise: Same question for C16A G66U please.
Key: 6.63e-05

Exercise: Query A42C U69G next
Key: 0.00624

Exercise: Query U47A U54G U55A C70A next
Key: 0.000105

Exercise: Can you check U47C A64G next?
Key: 0.00499

Exercise: Now consider U56G G66U .
Key: 0.000682

Exercise: Now consider A15G U55C .
Key: 0.0242

Exercise: And for U45G A52U ?
Key: 0.000189

Exercise: Queued: C58G C67G
Key: 1.83e-05

Exercise: Query U56A G60A next
Key: 2.33e-05

Exercise: How about G41U U45C ?
Key: 0.000331

Exercise: Another variant to check: C11G G59C
Key: 0.000764
